TEST_TARGET: PI3K δ (p110δ/p85α) (Homo sapiens, UniProt O00329)
Construct: purchased Upstate
Sequence (O00329 whole entry): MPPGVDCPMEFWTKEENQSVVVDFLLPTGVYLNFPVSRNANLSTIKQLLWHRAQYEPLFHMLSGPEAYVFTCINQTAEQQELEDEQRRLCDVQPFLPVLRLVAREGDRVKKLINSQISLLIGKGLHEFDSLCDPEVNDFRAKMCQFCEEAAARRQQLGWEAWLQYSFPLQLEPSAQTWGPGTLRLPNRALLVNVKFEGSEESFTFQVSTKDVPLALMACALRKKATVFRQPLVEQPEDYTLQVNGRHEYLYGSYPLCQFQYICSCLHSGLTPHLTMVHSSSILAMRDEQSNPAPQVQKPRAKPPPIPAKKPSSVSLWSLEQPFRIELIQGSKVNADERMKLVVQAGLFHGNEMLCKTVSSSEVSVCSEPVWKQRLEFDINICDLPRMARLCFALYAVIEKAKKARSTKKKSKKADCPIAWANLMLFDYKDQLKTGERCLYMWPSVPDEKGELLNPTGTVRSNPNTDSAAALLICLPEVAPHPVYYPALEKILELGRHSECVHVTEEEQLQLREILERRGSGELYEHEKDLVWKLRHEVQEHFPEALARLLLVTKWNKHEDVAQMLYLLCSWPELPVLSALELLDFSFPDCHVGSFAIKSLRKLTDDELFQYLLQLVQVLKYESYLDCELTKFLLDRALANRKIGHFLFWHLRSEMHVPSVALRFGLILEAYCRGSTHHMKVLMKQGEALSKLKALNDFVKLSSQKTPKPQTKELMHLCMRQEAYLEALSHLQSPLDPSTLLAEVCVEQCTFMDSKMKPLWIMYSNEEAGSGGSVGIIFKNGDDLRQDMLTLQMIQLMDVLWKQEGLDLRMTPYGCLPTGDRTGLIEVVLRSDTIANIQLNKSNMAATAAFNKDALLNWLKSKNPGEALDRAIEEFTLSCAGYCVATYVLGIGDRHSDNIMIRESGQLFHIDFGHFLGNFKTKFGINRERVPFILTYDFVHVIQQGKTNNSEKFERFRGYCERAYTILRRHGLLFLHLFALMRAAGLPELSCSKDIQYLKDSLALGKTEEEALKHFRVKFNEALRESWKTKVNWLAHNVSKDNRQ
Sequence (P27986 whole entry partner): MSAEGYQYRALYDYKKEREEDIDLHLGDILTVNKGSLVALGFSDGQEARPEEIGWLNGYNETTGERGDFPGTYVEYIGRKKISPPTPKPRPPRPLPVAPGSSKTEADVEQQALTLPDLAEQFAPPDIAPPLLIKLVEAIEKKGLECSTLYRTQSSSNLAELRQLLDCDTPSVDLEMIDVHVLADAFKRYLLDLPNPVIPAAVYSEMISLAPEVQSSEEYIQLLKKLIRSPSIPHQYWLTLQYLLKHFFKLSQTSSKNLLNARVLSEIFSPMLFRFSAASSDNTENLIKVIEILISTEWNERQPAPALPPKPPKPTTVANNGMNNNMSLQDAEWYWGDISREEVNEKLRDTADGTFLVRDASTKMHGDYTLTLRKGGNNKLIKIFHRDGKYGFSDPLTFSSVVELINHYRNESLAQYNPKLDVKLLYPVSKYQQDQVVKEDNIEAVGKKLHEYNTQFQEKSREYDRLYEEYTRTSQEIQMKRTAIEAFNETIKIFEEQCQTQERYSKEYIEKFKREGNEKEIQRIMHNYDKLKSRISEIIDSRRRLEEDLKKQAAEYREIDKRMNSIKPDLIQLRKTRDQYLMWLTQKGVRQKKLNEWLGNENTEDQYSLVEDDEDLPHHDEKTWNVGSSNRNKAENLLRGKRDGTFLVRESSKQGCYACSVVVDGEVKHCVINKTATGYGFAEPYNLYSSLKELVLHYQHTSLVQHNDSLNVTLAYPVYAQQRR
EXPERIMENT_SUMMARY: PI3K δ (p110δ/p85α) inhibition assay
Type: biochemical
TEST_SETTINGS: read-out: PI3K δ IC50
Method: IC50 values are measured using either a standard TLC assay for lipid kinase activity (described below) or a high-throughput membrane capture assay. […] The TLC plates are then dried, exposed to a phosphorimager screen (Storm, Amersham), and quantitated. Other commercial kits or systems for assaying PI3-K activities are avaiable. […] The plate is sealed, incubated for 1 hour at room temperature, and then read on an appropriate plate reader. Data is analyzed and IC50s are generated using GraphPad Prism 5.
REPORTED_ENDPOINT: IC50

CNc1nc(C)c2cc(-c3cccc(O)c3)ccc2n1: < 500 nM
Cc1nc(N)nc2ccc(-c3cccc(O)c3)cc12: < 100 nM
Cc1nc(Nc2cccnc2)nc2ccc(-c3cccc(O)c3)cc12: < 100 nM
Cc1nc(Nc2cccnc2)nc2ccc(-c3cc(O)cc(F)c3)cc12: < 100 nM
CNc1nc(C)c2cc(-c3cnc4[nH]ccc4c3)ccc2n1: > 1000 nM
